- targetOrTestSystem: T1, SmMYB36 (Salvia miltiorrhiza, UniProt A0A059PRJ2 1-160)
- T1 sequence: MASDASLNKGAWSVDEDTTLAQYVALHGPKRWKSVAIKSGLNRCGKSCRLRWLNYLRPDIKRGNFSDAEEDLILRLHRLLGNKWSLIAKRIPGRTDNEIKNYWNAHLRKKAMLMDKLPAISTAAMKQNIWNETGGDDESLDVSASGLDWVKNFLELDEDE
- method: EMSA; Invitrogen EMSA kit, probe:protein mass ratio 1:15, 10 µL; protein eluted in 50 mM NaH2PO4, 300 mM NaCl, 250 mM imidazole pH 8.0; binding buffer and temperature not given
- settings: protein: recombinant; tags: His (pET32a fusion); blunt
metric: binding result

>>> print(df.to_string())
                                     binder          metric  valuereported
0  MCT-MBS3-1 (dsDNA) DNA 1: TATCATCTTCGGTAACTGATACTCAAGGAT DNA 2: ATCCTTGAGTATCAGTTACCGAAGATGATA  binding result          binds
1  MBSI-2 core (dsDNA) DNA 1: AAAAAACGGTTA DNA 2: TAACCGTTTTTT  binding result          binds
2  4CL2-MRE (dsDNA) DNA 1: TTTGTAGAGTTGAACCTAAAGATGATGGGTG DNA 2: CACCCATCATCTTTAGGTTCAACTCTACAAA  binding result          binds
3  C4H1-MBS3 (dsDNA) DNA 1: GTTTAAAAGACATAACTGAGTTATCGAACA DNA 2: TGTTCGATAACTCAGTTATGTCTTTTAAAC  binding result          binds
4  GGPPS1-MRE (dsDNA) DNA 1: TTTTTCGATAGTAACCTAATTTTCTGTAGTG DNA 2: CACTACAGAAAATTAGGTTACTATCGAAAAA  binding result          binds
5  MBS1 core (dsDNA) DNA 1: CAACTG DNA 2: CAGTTG  binding result          binds

Where do these numbers come from? They come from paper PMC5506036.
